Data provenance is the NIST ThermoML archive (doi:10.1021/acs.jced.6b00269).

# Measurement Conditions: Glass; DSC
± gives the expanded uncertainty stated by the source.
Readout Name: Glass transition temperature

The examples below pair each entry with its known result.
[[record]]
compound = "CCCC[S+]1CCCCC1.O=S(=O)([N-]S(=O)(=O)C(F)(F)F)C(F)(F)F [1-butylthianium bis(trifluoromethylsulfonyl)imide]"
readout_name = "Glass transition temperature"
test_value = "-82 ± 2 °C"

[[record]]
compound = "CCCCCCCCSC(N(C)C)=[N+](C)C.O=S(=O)([N-]S(=O)(=O)C(F)(F)F)C(F)(F)F"
readout_name = "Glass transition temperature"
test_value = "-82 ± 2 °C"

[[record]]
compound = "CCCCCCn1cc[n+](C)c1.O=[N+]([O-])c1cn[n-]c1 [1-hexyl-3-methylimidazolium 4-nitropyrazolide]"
readout_name = "Glass transition temperature"
test_value = "-56 ± 2 °C"

[[record]]
compound = "CCCC[P+](CC)(CC)CC.Cc1ncc([N+](=O)[O-])[n-]1 [butyltriethylphosphonium 2-methyl-5-nitroimidazolide]"
readout_name = "Glass transition temperature"
test_value = "-71 ± 2 °C"

[[record]]
compound = "CCCCCCCCCC[P+](CC)(CC)CC.O=[N+]([O-])c1cn[n-]c1 [decyltriethylphosphonium 4-nitropyrazolide]"
readout_name = "Glass transition temperature"
test_value = "-71 ± 2 °C"

[[record]]
compound = "CC[P+](CC)(CC)COCCOC.Cc1ncc([N+](=O)[O-])[n-]1"
readout_name = "Glass transition temperature"
test_value = "-75 ± 2 °C"


Would you kindly look at the next entry?
QUERY: Supply reported Glass transition temperature belonging to this compound: CCCCCCCCCCCCCC[P+](CCCCCC)(CCCCCC)CCCCCC.Cc1ncc([N+](=O)[O-])[n-]1 [trihexyl(tetradecyl)phosphonium 2-methyl-5-nitroimidazolide]
RESULT: -79 ± 2 °C

###

# Measurement Conditions: 313.15 K; 101.33 kPa; Liquid; Cone and plate viscometry
± gives the expanded uncertainty stated by the source.
Readout Name: viscosity

Observe how each entry below is paired with its result.
[[record]]
molecule = "CCCCCCCCC[P+](CC)(CC)CC.O=[N+]([O-])c1cn[n-]c1 [triethylnonylphosphonium 4-nitropyrazolide]"
test_value = "123 ± 8 mPa·s"

[[record]]
molecule = "CCCC[P+](CC)(CC)CC.O=[N+]([O-])c1cn[n-]c1 [butyltriethylphosphonium 4-nitropyrazolide]"
test_value = "85 ± 6 mPa·s"

[[record]]
molecule = "CCCCCCn1cc[n+](C)c1.N#Cc1ccc[n-]1 [1-hexyl-3-methylimidazolium 2-cyanopyrrolide]"
test_value = "91 ± 6 mPa·s"

[[record]]
molecule = "CCCCCCCCCCCCCC[P+](CCCCCC)(CCCCCC)CCCCCC.N#Cc1nc[n-]c1C#N [trihexyl(tetradecyl)phosphonium 4,5-dicyanoimidazolide]"
test_value = "220 ± 16 mPa·s"


QUERY: Given the molecule CCCCCCCCCCCCCC[P+](CCCCCC)(CCCCCC)CCCCCC.O=[N+]([O-])c1c[n-]cn1 [trihexyl(tetradecyl)phosphonium 4-nitroimidazolide] , write its reported viscosity.
RESULT: 298 ± 22 mPa·s

QUERY: State, in one line, measured viscosity of CCCCCCCCCCCCCC[P+](CCCCCC)(CCCCCC)CCCCCC.O=S(=O)([N-]S(=O)(=O)C(F)(F)F)C(F)(F)F
RESULT: 145 ± 10 mPa·s

###

Reported mass density by item:
# Measurement Conditions: 295.15 K; 101.33 kPa; Liquid; Vibrating tube method
Value expressed in kg/m3; do not type the unit.

Would you please look over these solved cases?
[[record]]
compound = "CCCC[P+](CC)(CC)CC.O=[N+]([O-])c1cn[n-]c1 [butyltriethylphosphonium 4-nitropyrazolide]"
test_value = 1080.3

[[record]]
compound = "CCCCCCn1cc[n+](C)c1C.O=[N+]([O-])c1cn[n-]c1 [1-hexyl-2,3-dimethylimidazolium 4-nitropyrazolide]"
test_value = 1121

[[record]]
compound = "CCCCCCCCCCCCCC[P+](CCCCCC)(CCCCCC)CCCCCC.O=[N+]([O-])c1cn[n-]c1 [trihexyl(tetradecyl)phosphonium 4-nitropyrazolide]"
test_value = 941.1

[[record]]
compound = "CCCCCCCC[P+](CC)(CC)CC.O=[N+]([O-])c1cn[n-]c1 [triethyloctylphosphonium 4-nitropyrazolide]"
test_value = 1032.7


QUERY: Recall and state the measured mass density for CCCC[P+](CC)(CC)CC.Cc1ncc([N+](=O)[O-])[n-]1 [butyltriethylphosphonium 2-methyl-5-nitroimidazolide] .
RESULT: 1067.1

QUERY: Specify measured mass density for CCCCCCCCSC(N(C)C)=[N+](C)C.O=S(=O)([N-]S(=O)(=O)C(F)(F)F)C(F)(F)F .
RESULT: 1299.3

QUERY: State its mass density for this compound: CC[P+](CC)(CC)COCCOC.O=S(=O)([N-]S(=O)(=O)C(F)(F)F)C(F)(F)F
RESULT: 1363

QUERY: Tell me measured mass density for CCCCCCCCCCCCCC[P+](CCCCCC)(CCCCCC)CCCCCC.O=[N+]([O-])c1c[n-]cn1 [trihexyl(tetradecyl)phosphonium 4-nitroimidazolide] please.
RESULT: 941.8

QUERY: Quote mass density reported for CCCCCCC[P+](CC)(CC)CC.O=[N+]([O-])c1cn[n-]c1 [triethylheptylphosphonium 4-nitropyrazolide] please.
RESULT: 1039.7
